Source of measurements: patent US12581252B2

Reported IC50 values are given for each entry in this list.
Molecular target: H1047R PIK3CA enzyme (Homo sapiens, UniProt P42336, H1047R)
Sequence (P42336 whole entry H1047R): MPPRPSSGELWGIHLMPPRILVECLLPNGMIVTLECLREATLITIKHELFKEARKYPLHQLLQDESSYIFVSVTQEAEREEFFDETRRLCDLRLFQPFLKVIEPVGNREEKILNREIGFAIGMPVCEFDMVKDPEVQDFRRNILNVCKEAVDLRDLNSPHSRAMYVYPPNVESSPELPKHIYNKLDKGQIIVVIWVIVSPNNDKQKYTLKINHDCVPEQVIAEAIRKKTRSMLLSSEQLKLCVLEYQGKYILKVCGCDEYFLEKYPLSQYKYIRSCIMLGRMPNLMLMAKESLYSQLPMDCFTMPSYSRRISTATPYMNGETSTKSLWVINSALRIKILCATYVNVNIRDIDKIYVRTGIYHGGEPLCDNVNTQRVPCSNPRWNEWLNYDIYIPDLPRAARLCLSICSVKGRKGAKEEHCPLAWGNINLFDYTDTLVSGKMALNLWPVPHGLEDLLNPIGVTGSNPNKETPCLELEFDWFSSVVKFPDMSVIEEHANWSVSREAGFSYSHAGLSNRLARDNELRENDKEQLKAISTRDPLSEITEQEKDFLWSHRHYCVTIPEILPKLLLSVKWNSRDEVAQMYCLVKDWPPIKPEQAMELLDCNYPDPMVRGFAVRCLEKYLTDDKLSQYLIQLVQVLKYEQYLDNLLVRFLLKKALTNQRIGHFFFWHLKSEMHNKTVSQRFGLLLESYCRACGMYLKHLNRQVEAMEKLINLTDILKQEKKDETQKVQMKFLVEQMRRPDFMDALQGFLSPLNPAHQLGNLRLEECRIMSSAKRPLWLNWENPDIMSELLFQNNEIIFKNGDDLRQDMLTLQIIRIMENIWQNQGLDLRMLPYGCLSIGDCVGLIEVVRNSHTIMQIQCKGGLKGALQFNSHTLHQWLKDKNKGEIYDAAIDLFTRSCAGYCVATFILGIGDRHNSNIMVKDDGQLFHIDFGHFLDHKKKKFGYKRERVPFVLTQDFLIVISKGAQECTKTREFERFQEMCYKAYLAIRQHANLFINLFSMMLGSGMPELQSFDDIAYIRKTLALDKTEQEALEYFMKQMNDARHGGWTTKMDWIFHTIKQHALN
Sequence (P27986 whole entry partner): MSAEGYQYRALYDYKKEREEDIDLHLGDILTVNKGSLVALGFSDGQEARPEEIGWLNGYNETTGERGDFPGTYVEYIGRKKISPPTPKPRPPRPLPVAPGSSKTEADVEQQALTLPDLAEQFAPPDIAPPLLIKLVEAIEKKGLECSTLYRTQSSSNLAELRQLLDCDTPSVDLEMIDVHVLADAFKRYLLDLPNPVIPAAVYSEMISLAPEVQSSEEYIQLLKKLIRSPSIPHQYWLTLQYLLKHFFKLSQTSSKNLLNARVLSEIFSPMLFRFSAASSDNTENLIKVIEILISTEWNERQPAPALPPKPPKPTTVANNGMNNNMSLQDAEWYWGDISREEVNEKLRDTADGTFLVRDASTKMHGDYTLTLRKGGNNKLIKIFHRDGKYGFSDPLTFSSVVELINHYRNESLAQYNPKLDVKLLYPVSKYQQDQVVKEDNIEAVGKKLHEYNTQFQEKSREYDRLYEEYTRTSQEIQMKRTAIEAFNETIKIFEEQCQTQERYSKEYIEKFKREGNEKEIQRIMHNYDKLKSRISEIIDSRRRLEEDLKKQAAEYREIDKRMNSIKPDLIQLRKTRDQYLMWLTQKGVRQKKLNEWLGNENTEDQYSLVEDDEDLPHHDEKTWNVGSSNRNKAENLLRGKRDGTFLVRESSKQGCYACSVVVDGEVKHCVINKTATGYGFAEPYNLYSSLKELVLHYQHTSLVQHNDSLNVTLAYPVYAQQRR
Assay: ADP-Glo Biochemical PIK3CA Kinase Assay

O=C(Nc1cccc2c1C(C1CCCCC1)NC2=O)c1cc(F)cc(C(F)(F)F)c1 (stereo not drawn) [Compound I-1611] : 1000 to 10000 nM

Prompt: Tell me IC50 reported for CP(C)(=O)c1cc(NC(=O)c2cc(F)cc(C(F)(F)F)c2)c2c(c1)C(=O)NC2c1cc(F)ccc1Cl (stereo not drawn) [Compound I-395]
Completion: ≤ 100 nM

Prompt: Tell me IC50 reported for O=C(Nc1cc(CC2COC2)cc2c1C(c1cc(F)ccc1Cl)NC2=O)c1cc(F)cc(C(F)(F)F)c1 (stereo not drawn) [Compound I-1279]
Completion: ≤ 100 nM

Prompt: Tell me IC50 reported for N#CCc1cc(NC(=O)N2C[C@@H](O)c3cc(F)ccc32)c2c(c1)C(=O)N[C@@H]2c1cc(F)ccc1Cl (single isomer, unassigned) [Compound I-2538]
Completion: ≤ 100 nM

Prompt: Tell me IC50 reported for [2H][C@@]1(c2cc(F)ccc2Cl)NC(=O)c2cc(-c3ccc4ncnn4c3)cc(NC(=O)c3cc(F)cc(C(F)(F)F)c3)c21 (single isomer, unassigned) [Compound I-1601]
Completion: ≤ 100 nM

Prompt: Tell me IC50 reported for CC(C)(O)c1cc(NC(=O)N2CCc3ccccc32)c2c(c1)C(=O)N[C@H]2c1cc(F)ccc1Cl [Compound I-713]
Completion: ≤ 100 nM

* * *

Reported pIC50 values are given for each entry in this list.
Biological target: H1047R PIK3CA enzyme (Homo sapiens, UniProt P42336, H1047R)
Assay: ADP-Glo Biochemical PIK3CA Kinase Assay
pIC50: −log10 of the molar value.

O=C(Nc1cc(Oc2ccccn2)cc2c1C(c1cc(F)ccc1Cl)NC2=O)c1cc(F)cc(C(F)(F)F)c1 (stereo not drawn) : 6.30 to 7.00
CS(=O)(=O)CCn1cc(-c2cc(NC(=O)c3cc(F)cc(C(F)(F)F)c3)c3c(c2)C(=O)NC3c2cc(F)ccc2Cl)cn1 (stereo not drawn) : ≥ 7.00
O=C(Nc1cccc2c1C(C1CCCNC1)NC2=O)c1cc(F)cc(C(F)(F)F)c1 (stereo not drawn) : 4.00 to 5.00
O=C(Nc1cccc2c1C(c1cc(F)ccc1Cl)NC2=O)c1cc(F)cc(C(F)(F)F)c1 (stereo not drawn) : ≥ 7.00
C[C@H](c1cc(NC(=O)c2cc(F)cc(C(F)(F)F)c2)c2c(c1)C(=O)N[C@@H]2c1cc(F)ccc1Cl)S(C)(=O)=O (single isomer, unassigned) : 5.00 to 6.00

Prompt: Please indicate recorded pIC50 of Cn1ncc(C2NC(=O)c3cccc(NC(=O)c4nsc5ccccc45)c32)c1C(F)F (stereo not drawn) measured with H1047R PIK3CA enzyme (Homo sapiens, UniProt P42336, H1047R).
Completion: 4.00 to 5.00

* * *

Reported IC50 values are given for each entry in this list.
Molecular target: H1047R PIK3CA enzyme (Homo sapiens, UniProt P42336, H1047R)
Experiment: ADP-Glo Biochemical PIK3CA Kinase Assay
Protocol: Compounds to be assayed were plated in 16 doses of 1:2 serial dilutions (20 nL volume each well) on a 1536-well plate, and the plate warmed to room temperature. […] To the well was added 1 μL of 200 μM ATP and 20 μM of diC8-PIP2 in Substrate Assay Buffer (50 mM HEPES pH7.4, 50 mM NaCl, 5 mM DTT and 0.03% CHAPS) to start the reaction, and the plate was shaken for 10 seconds, then spun briefly at 1500 rpm, and then incubated for 60 minutes at room temperature. […]

O=C1C=C(c2cc(NC(=O)c3cc(F)cc(C(F)(F)F)c3)c3c(c2)C(=O)NC3c2cc(F)ccc2Cl)CO1 (stereo not drawn) : ≤ 100 nM

Prompt: Tell me IC50 reported for CC(C)(O)Cn1cc(-c2cc(NC(=O)c3cc(F)cc(C(F)(F)F)c3)c3c(c2)C(=O)NC3c2cc(F)ccc2Cl)cn1 (stereo not drawn)
Completion: ≤ 100 nM

Prompt: Tell me IC50 reported for Cc1ccccc1C1NC(=O)c2c(C)ncc(NC(=O)c3cc(F)cc(C(F)(F)F)c3)c21 (stereo not drawn)
Completion: 100 to 500 nM

* * *

Reported pIC50 values are given for each entry in this list.
Target: H1047R PIK3CA enzyme (Homo sapiens, UniProt P42336, H1047R)
Assay: ADP-Glo Biochemical PIK3CA Kinase Assay
pIC50: −log10 of the molar value.

Prompt: Tell me pIC50 reported for Cc1ccccc1C1NC(=O)c2c(Br)ccc(NC(=O)c3nsc4ccccc34)c21 (stereo not drawn)
Completion: ≥ 7.00

Prompt: Tell me pIC50 reported for Cc1ccccc1C1NC(=O)c2cc(CF)cc(NC(=O)c3cc(F)cc(C(F)(F)F)c3)c21 (stereo not drawn)
Completion: ≥ 7.00

Prompt: Tell me pIC50 reported for O=C(Nc1cccc2c1C(c1ccc(C3CC3)cc1Cl)NC2=O)c1cc(F)cc(C(F)(F)F)c1 (stereo not drawn)
Completion: 5.00 to 6.00

Prompt: Tell me pIC50 reported for O=C(Nc1cccc2c1C(c1ccc(Br)cc1Cl)NC2=O)c1cc(F)cc(C(F)(F)F)c1 (stereo not drawn)
Completion: 5.00 to 6.00

* * *

Reported pIC50 values are given for each entry in this list.
Biological target: H1047R PIK3CA enzyme (Homo sapiens, UniProt P42336, H1047R)
Experiment: ADP-Glo Biochemical PIK3CA Kinase Assay
pIC50: −log10 of the molar value.

Past entries and their recorded results:
Cc1ccccc1C1NC(=O)c2cccc(NC(=O)c3nsc4ccc(-c5ccccc5)cc34)c21 (centres unmarked) : 5.00 to 6.00
O=C(O)Cc1ccccc1-c1cc(NC(=O)c2cc(F)cc(C(F)(F)F)c2)c2c(c1)C(=O)NC2c1cc(F)ccc1Cl (centres unmarked) : 6.30 to 7.00
O=C1NC(c2cc(F)ccc2Cl)c2c(NC(=O)C3CCCN(CC(F)(F)F)C3)cc(-c3ccc4ncnn4c3)cc21 (single isomer, unassigned) : 4.00 to 5.00
CNC(=O)c1cc(NC(=O)c2csc3ccccc23)c2c(c1)C(=O)N[C@H]2c1ccccc1C : ≥ 7.00
Cc1c(-c2cc(NC(=O)c3cc(F)cc(C(F)(F)F)c3)c3c(c2)C(=O)N[C@H]3c2cc(F)ccc2Cl)ccc2ncnn12 : ≥ 7.00

Prompt: Tell me pIC50 reported for O=C(Nc1cc(-c2cn3ncnc3cn2)cc2c1[C@H](c1cc(F)ccc1C(F)F)NC2=O)c1cc(F)cc(Cl)c1 (single isomer, unassigned)
Completion: ≥ 7.00

Prompt: Tell me pIC50 reported for CC(C)n1cc(-c2cc(NC(=O)c3cc(F)cc(C(F)(F)F)c3)c3c(c2)C(=O)NC3c2cc(F)ccc2Cl)ccc1=O (centres unmarked)
Completion: ≥ 7.00

Prompt: Tell me pIC50 reported for O=C(Nc1cccc2c1C(c1cc(F)ccc1Cl)NC2=O)c1cc(O)cc(C(F)(F)F)c1 (centres unmarked)
Completion: 6.00 to 6.30

Prompt: Tell me pIC50 reported for O=C(Nc1cc(NC2CCC2(F)F)cc2c1C(c1cc(F)ccc1Cl)NC2=O)c1cc(F)cc(C(F)(F)F)c1 (centres unmarked)
Completion: ≥ 7.00

* * *

Target: H1047R PIK3CA enzyme (Homo sapiens, UniProt P42336, H1047R)
Test: ADP-Glo Biochemical PIK3CA Kinase Assay
pIC50: −log10 of the molar value.
test_readout: pIC50

Past entries and their recorded results:
O=C1N[C@H](c2cc(F)ccc2Cl)c2c(NC(=O)N3C[C@@](O)(C(F)F)c4cc(F)ccc43)cccc21 (single isomer, unassigned) : 6.00 to 6.30
C[C@@]1(C(=O)Nc2cc(Br)cc3c2[C@H](c2cc(F)ccc2Cl)NC3=O)CCC[C@H](C(F)(F)F)C1 (single isomer, unassigned) : 6.30 to 7.00
O=C(Nc1cc(C(O)CN2CC(F)(F)C2)cc2c1C(c1cc(F)ccc1Cl)NC2=O)c1cc(F)cc(Cl)c1 (stereo not drawn) : 6.30 to 7.00
O=C1N[C@H](c2cc(F)ccc2Cl)c2c(NC(=O)N3C[C@](O)(C(F)(F)F)c4cc(F)ccc43)cccc21 (single isomer, unassigned) : 5.00 to 6.00
CN(C)S(=O)(=O)Cc1cc(NC(=O)c2cc(F)cc(C(F)(F)F)c2)c2c(c1)C(=O)N[C@H]2c1cc(F)ccc1Cl : ≥ 7.00
Cc1cn(-c2cc(NC(=O)N3C[C@](O)(C(F)(F)F)c4cc(F)ccc43)c3c(c2)C(=O)N[C@@H]3c2cc(F)ccc2Cl)cn1 (single isomer, unassigned) : ≥ 7.00
O=C1NC(c2cc(F)ccc2Cl)c2c(NC(=O)C3CNCC(C(F)(F)F)C3)cc(-c3ccc4ncnn4c3)cc21 (mixture of isomers) : 4.00 to 5.00
CNC(=O)n1cc(-c2cc(NC(=O)c3cc(F)cc(C(F)(F)F)c3)c3c(c2)C(=O)NC3c2cc(F)ccc2Cl)cn1 (stereo not drawn) : ≥ 7.00

Prompt: Tell me pIC50 reported for Nc1ncc(-c2cc(NC(=O)c3cc(F)cc(C(F)(F)F)c3)c3c(c2)C(=O)N[C@H]3c2cc(F)ccc2Cl)cn1 (stereo in doubt)
Completion: 5.00 to 6.00

Prompt: Tell me pIC50 reported for Cc1ccccc1C1NC(=O)c2c(C(N)=O)ccc(NC(=O)c3csc4ccccc34)c21 (stereo not drawn)
Completion: ≥ 7.00

Prompt: Tell me pIC50 reported for O=C(Nc1cc(C2CN(C3COC3)C2)cc2c1C(c1cc(F)ccc1Cl)NC2=O)c1cc(F)cc(C(F)(F)F)c1 (stereo not drawn)
Completion: ≥ 7.00

Prompt: Tell me pIC50 reported for Cc1ccccc1C1NC(=O)c2cccc(NC(=O)N3CCc4c(F)cc(F)cc43)c21 (stereo not drawn)
Completion: 6.30 to 7.00
